// IC50 at 72 h lookup, one value per entry
run.description: Cytotoxicity assay, CellTiter-Glo cell viability
Format: cell-based
run.parameters: African green monkey, Vero kidney epithelial cells (ATCC CCL-81); Vero cells, 72 hours; read-out: Cytotoxicity IC50
*1 amine or outer side, *2 acyl side, *3 side chain or, on linkers, in order; H or OH if unused. Where a SMILES comes first, the peptide text is derived from it. Bridges are numbered along the chain shown (N, C = ends). [ ]: non-standard residue; d: D form. The star is where a group is joined. Phe(3,5-F2) = N[C@@H](Cc1cc(F)cc(F)c1)C(=O)O; Pro(4S-Me) = C[C@@H]1CN[C@H](C(=O)O)C1; NH(4-Et-phenyl) = CCc1ccc(N*)cc1; aThr = C[C@H](O)[C@H](N)C(=O)O; Pip = O=C(O)[C@@H]1CCCCN1; CO = O=C([*:1])[*:2]
# do not omit the unit; it follows the number

Sure, the documented IC50 at 72 h for C[C@H]1CC2C(=O)OC[C@H](NC(=O)[C@H](Cc3ccccc3)NC(=O)Nc3ccc(OC(F)(F)F)cc3)C(=O)N3CCCC3C(=O)N3CCCCC3C(=O)N[C@@H](C)C(=O)N2C1 (stereo partly drawn) [Compound 44] is 83.8 µM

Continuing:
For record CCc1ccc(NC(=O)N[C@@H](Cc2cc(F)cc(F)c2)C(=O)N[C@@H]2C(=O)N3CCC[C@H]3C(=O)N3CCCC[C@H]3C(=O)N[C@@H](C)C(=O)N3C[C@@H](C)C[C@H]3C(=O)O[C@H]2C)cc1 [Compound 21] ({NH(4-Et-phenyl)-CO}-[Phe(3,5-F2)][aThr]P[Pip]A[Pro(4S-Me)]; ester 2-C) the listed IC50 at 72 h is 68.5 µM

For record C[C@H]1CC2C(=O)OC[C@H](NC(=O)[C@H](Cc3cc(F)cc(F)c3)NC(=O)Nc3ccc4c(c3)OCO4)C(=O)N3CCCC3C(=O)N3CCCCC3C(=O)N[C@@H](C)C(=O)N2C1 (stereo partly drawn) [Compound 46] the listed IC50 at 72 h is 71.8 µM

---

The following molecules are listed with their measured IC50 at 72 h values.
run.description: Cytotoxicity assay, CellTiter-Glo cell viability
Type: cell-based
run.parameters: African green monkey

Item: C[C@@H]1C[C@H]2C(=O)OC[C@H](NC(=O)[C@H](Cc3cc(F)cc(F)c3)NC(=O)Nc3ccc(OC(F)(F)F)cc3)C(=O)N3CCC[C@H]3C(=O)N3CCCC[C@H]3C(=O)N[C@@H](C)C(=O)N2C1 [Compound 13] | IC50 at 72 h: 70.9 µM

Kindly note the recorded IC50 at 72 h for CCc1ccc(NC(=O)N[C@@H](Cc2ccccc2)C(=O)N[C@H]2COC(=O)[C@@H]3C[C@@H](C)CN3C(=O)[C@H](C)NC(=O)[C@@H]3CCCCN3C(=O)[C@@H]3CCCN3C2=O)cc1 [Compound 4] , which is 73.7 µM

For reference, reported IC50 at 72 h for C[C@@H]1C[C@H]2C(=O)OC[C@H](NC(=O)[C@H](Cc3ccccc3)NC(=O)Nc3ccc(OC(F)(F)F)cc3)C(=O)N3CCC[C@H]3C(=O)N3CCCC[C@H]3C(=O)N[C@@H](C)C(=O)N2C1 [Compound 2] stands at 88.3 µM

Form: molecule = CCc1ccc(NC(=O)N[C@@H](Cc2cc(F)cc(F)c2)C(=O)N[C@@H]2C(=O)N3CCCC3C(=O)N(C)[C@@H](C)C(=O)N[C@@H](C)C(=O)N3C[C@@H](C)CC3C(=O)O[C@H]2C)cc1 (stereo partly drawn) [Compound 30] ; IC50 at 72 h = 28.8 µM

Record C[C@H]1CC2C(=O)O[C@@H](C)[C@H](NC(=O)[C@H](Cc3cc(F)cc(F)c3)NC(=O)Nc3ccc(OC(F)(F)F)cc3)C(=O)N3C[C@H](O)CC3C(=O)N(C)[C@@H](C)C(=O)N[C@@H](C)C(=O)N2C1 (stereo partly drawn) [Compound 32] , field IC50 at 72 h: 28.3 µM

IC50 at 72 h recorded for this molecule, COc1cccc(NC(=O)N[C@@H](Cc2ccccc2)C(=O)N[C@H]2COC(=O)[C@@H]3C[C@@H](C)CN3C(=O)[C@H](C)NC(=O)[C@@H]3CCCCN3C(=O)[C@@H]3CCCN3C2=O)c1 [Compound 8] , is > 100 µM

---

The entries below are paired with their reported EC50.
target.or.system: Sa-ClpP (Staphylococcus aureus, UniProt Q2G036)
Construct: made in house; host or cells: E. coli BL21 (DE3)
Sequence (Q2G036 whole entry): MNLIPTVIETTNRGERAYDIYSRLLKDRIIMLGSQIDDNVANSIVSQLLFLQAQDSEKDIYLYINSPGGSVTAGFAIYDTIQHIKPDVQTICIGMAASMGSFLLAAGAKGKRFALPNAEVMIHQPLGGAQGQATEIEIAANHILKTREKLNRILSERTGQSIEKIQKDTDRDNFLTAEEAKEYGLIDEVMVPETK
run.description: ClpP activation, EnzCheck Protease Assay with Bodipy-FL casein (second described method)
Format: biochemical, S. aureus
run.parameters: read-out: ClpP Activation EC50 (converted)
*1 amine or outer side, *2 acyl side, *3 side chain or, on linkers, in order; H or OH if unused. Where a SMILES comes first, the peptide text is derived from it. Bridges are numbered along the chain shown (N, C = ends). [ ]: non-standard residue; d: D form. The star is where a group is joined. Phe(3,5-F2) = N[C@@H](Cc1cc(F)cc(F)c1)C(=O)O; Pro(4S-Me) = C[C@@H]1CN[C@H](C(=O)O)C1; NH(4-Et-phenyl) = CCc1ccc(N*)cc1; aThr = C[C@H](O)[C@H](N)C(=O)O; Pip = O=C(O)[C@@H]1CCCCN1; CO = O=C([*:1])[*:2]
Your answer is read as µM, so omit the unit and give the number.

Some solved entries appear below for comparison.
Entry `Cc1ccc(NC(=O)N[C@@H](Cc2cc(F)cc(F)c2)C(=O)N[C@@H]2C(=O)N3CCC[C@H]3C(=O)N3CCCC[C@H]3C(=O)N[C@@H](C)C(=O)N3CCC[C@H]3C(=O)O[C@H]2C)cc1` : EC50 on Sa-ClpP (Staphylococcus aureus, UniProt Q2G036) = 0.7

The observed EC50 for CCc1ccc(NC(=O)N[C@@H](Cc2cc(F)cc(F)c2)C(=O)N[C@@H]2C(=O)N3CCC[C@H]3C(=O)N3CCCC[C@H]3C(=O)N[C@@H](C)C(=O)N3C[C@@H](C)C[C@H]3C(=O)O[C@H]2C)cc1 [Compound 21] ({NH(4-Et-phenyl)-CO}-[Phe(3,5-F2)][aThr]P[Pip]A[Pro(4S-Me)]; ester 2-C) when tested with Sa-ClpP (Staphylococcus aureus, UniProt Q2G036) stands at 0.33

For Cc1ccc(NC(=O)N[C@@H](Cc2cc(F)cc(F)c2)C(=O)N[C@@H]2C(=O)N3CCCC3C(=O)N(C)[C@@H](C)C(=O)N[C@@H](C)C(=O)N3CCCC3C(=O)O[C@H]2C)cc1 (stereo partly drawn) on Sa-ClpP (Staphylococcus aureus, UniProt Q2G036), measured EC50 was 0.48

Entry C[C@@H]1NC(=O)[C@H](C)N(C)C(=O)C2CCCN2C(=O)[C@@H](NC(=O)[C@H](Cc2cc(F)cc(F)c2)NC(=O)Nc2ccc(OC(F)(F)F)cc2)[C@H](C)OC(=O)C2CCCN2C1=O (stereo partly drawn) under Sa-ClpP (Staphylococcus aureus, UniProt Q2G036) had EC50 of 0.31

# lookup: `C[C@@H]1C[C@H]2C(=O)OC[C@H](NC(=O)[C@H](Cc3ccccc3)NC(=O)Nc3ccccc3Cl)C(=O)N3CCC[C@H]3C(=O)N3CCCC[C@H]3C(=O)N[C@@H](C)C(=O)N2C1` on Sa-ClpP (Staphylococcus aureus, UniProt Q2G036), EC50 = 1.6

# value of EC50, Sa-ClpP (Staphylococcus aureus, UniProt Q2G036), item `C[C@@H]1C[C@H]2C(=O)OC[C@H](NC(=O)[C@H](Cc3ccccc3)NC(=O)Nc3ccc(Cl)cc3)C(=O)N3CCC[C@H]3C(=O)N3CCCC[C@H]3C(=O)N[C@@H](C)C(=O)N2C1` = 1.5

Hey, Sa-ClpP (Staphylococcus aureus, UniProt Q2G036) data for `C[C@H]1C[C@H]2C(=O)O[C@@H](C)[C@H](NC(=O)[C@H](Cc3cc(F)cc(F)c3)NC(=O)Nc3ccc(OC(F)(F)F)cc3)C(=O)N3CCC[C@H]3C(=O)N3CCCC[C@H]3C(=O)N[C@@H](C)C(=O)N2C1` : EC50 came out at 0.32

Item: Cc1ccc(NC(=O)N[C@@H](Cc2cc(F)cc(F)c2)C(=O)N[C@H]2COC(=O)C3C[C@H](C)CN3C(=O)[C@H](C)NC(=O)C3CCCCN3C(=O)C3CCCN3C2=O)cc1C (stereo partly drawn) | System: Sa-ClpP (Staphylococcus aureus, UniProt Q2G036) | EC50: 0.7

From here, focus on the item given below.
// assay Sa-ClpP (Staphylococcus aureus, UniProt Q2G036), entry Cc1ccc(NC(=O)N[C@@H](Cc2cc(F)cc(F)c2)C(=O)N[C@H]2COC(=O)C3C[C@H](C)CN3C(=O)[C@H](C)NC(=O)C3CCCCN3C(=O)C3CCCN3C2=O)cc1 (stereo partly drawn) , EC50 value = 0.54
